This collection of values is drawn from paper PMC12040169.

assay summary: in vitro
measurement context: human, hela cells, % viability
# note: boundary value 90% maps to NO; viability at 28.5 h, 10 µM below it maps to YES

Previously resolved entries follow.
INSERT INTO assay_data (molecule, category) VALUES
  ('CCC(SC1=NCCS1)C(=O)Nc1ccc(S(N)(=O)=O)cc1 (stereo not drawn) [CBK263027]', 'NO'),
  ('O=C(Nc1nccc(N2CCNCC2)n1)c1cccs1 [CBK004305T]', 'YES'),
  ('N#C/C(=C\Nc1ccc(S(N)(=O)=O)cc1)c1nc(-c2cccc([N+](=O)[O-])c2)cs1 [CBK262366]', 'NO'),
  ('COC(=O)c1cccc2c1CCCN2Cc1nnc(C2CCC2)o1 [CBK304072]', 'NO'),
  ('Cn1c(/N=C(\C=N\c2cc(=O)n(C)c(=O)n2C)c2ccccc2)cc(=O)n(C)c1=O [CBK303237]', 'YES'),
  ('O=C(CCN1CCOCC1)Nc1ccc(Br)cc1C(=O)c1ccccc1 [CBK263165]', 'NO');

A record lists CNC(=O)N1CCN(CCOC(c2ccc(F)cc2)c2ccc(F)cc2)CC1 [CBK024948C] . Is its viability at 28.5 h, 10 µM below 90%? YES

###

Items are presented alongside their recorded viability at 28.5 h, 10 µM.
assay summary: in vitro
measurement context: human, hela cells, % viability
Answer format: numeric, % implied, no suffix.

INSERT INTO measurements (compound, test_value) VALUES
  ('Cc1cc(NS(=O)(=O)c2cccc3nonc23)n(C)n1', 93.7),
  ('c1ccc(CN2CCN(c3ccc(Nc4cc(-c5ccncc5)ncn4)cc3)CC2)cc1', 92.3),
  ('Cc1cc(CN2CCN(S(=O)(=O)c3ccc(C(=O)c4ccccc4)cc3)CC2)cc(C)c1O', 90.4);

Suppose we examine the compound CN1C(=O)CC2(C1=O)C(=O)N(C)c1ccc(F)cc12 (centres unmarked) ; what viability at 28.5 h, 10 µM value has been reported? 105

What does the record list as viability at 28.5 h, 10 µM for `CC(=O)Nc1cccc(-n2cc(-c3cccc(C(F)(F)F)c3)nn2)c1` ? 91.2

###

assay summary: in vitro
measurement context: human, hela cells, % viability
reported metric: viability at 28.5 h, 10 µM (%)
Entry rule: numbers only, all in %.

A selection of reference data follows.
INSERT INTO assay_data (compound, test_value) VALUES
  ('CCCC/C=C/c1cnc(N)c(-c2ccc(N3CCOCC3)cc2)n1 [CBK063891]', 101),
  ('CCOc1sc(=S)n(C)c1C(C)=O [CBK019515]', 88),
  ('Cc1cccc(C)c1-c1cn2ccnc2c(NC2CCOCC2)n1 [CBK037311]', 91.6),
  ('Cc1cccc(OCC(C)NC(=O)NCCc2cnn(C)c2)c1 (stereo not shown) [CBK304887]', 98.5),
  ('Cc1c(C(=O)N2CCC(c3c(C(=O)NC(C)C)sc4ccccc34)C2)[nH]c2ccccc12 (stereo not shown) [CBK285872]', 84.8);

Which measured viability at 28.5 h, 10 µM value corresponds to O=C(c1ccccc1)N1CCCC(c2nccnc2-c2cccc(C(F)(F)F)c2)C1 (stereo not shown) [CBK286218] ? 99.9

Given Nc1cc2ccccc2c(-c2ccncc2)n1 [CBK085708] , state its recorded viability at 28.5 h, 10 µM. 99.1

Requested read-out: viability at 28.5 h, 10 µM. Entry: COc1ccc(CN2C(=O)CC(c3ccccc3)C2=O)cc1 (stereo not shown) [CBK002055] 99.4

# input compound: O=C(C1COc2ccccc2O1)N1CCC(Cn2cncn2)(C2CCCCC2)CC1 (stereo not shown) [CBK136792] ; wanted: its viability at 28.5 h, 10 µM 102

I am curious: what viability at 28.5 h, 10 µM value has been reported for CCc1nc(CN2CCCC(NC(C(N)=O)c3ccccc3)C2)no1 (stereo not shown) [CBK305348] ? 97.4

Report viability at 28.5 h, 10 µM for CCn1c(N2CCC(C(=O)NC3CC3)CC2)nc2ccccc21 [CBK283922] please. 92.7
